Ref: PubChem BioAssay (NCI)

Experiment: NCI Yeast Anticancer Drug Screen. Data for the rad50 strain (AID 155);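 also: 0% = growth of vehicle-only cultures of the same strain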
Details: S. cerevisiae rad50 strain growth inhibition; at 50.0 µM; hits give high values
The panel holds about 79,000 compounds, 15% with a hit somewhere; the sample as a whole holds those more often.
Property: growth inhibition; scope: individual compounds

{"columns": ["compound", "growth inhibition / %"],
 "data": [
  ["COc1coc(/C=C/C(=O)c2ccc(O)c(O)c2)cc1=O", -11.9],
  ["CC(C)C(N)C(=O)NC(C(=O)O)C(C)C (stereo not drawn)", 12.8],
  ["CC/C=C(\\C)C1(CC)C(=O)NC(=O)N=C1N (stereo not drawn)", -1.35],
  ["O=C(Nc1ccc(F)cc1)Nc1cccc(C(=O)O)c1", 20],
  ["Cc1nc2ccc(Cl)cc2c2c1CCS2", -19.1],
  ["COC(=O)/C=C\\n1c(C)cc(=O)[nH]c1=O", 2.9],
  ["N#CC1=C(O)/C(=C\\C=C\\c2ccccc2)N(C(=O)c2ccccc2)C1=N", 12.2],
  ["CCN(CC)C(=O)COc1ccc(Cl)c(C)c1", 9.5],
  ["OC[C@@H](O)[C@H]1NC[C@@H](O)[C@H]1O", -45.1],
  ["CCCCCN1C(=O)N=NC1=S", 4.65],
  ["CN(C)CCCNc1ccnc2cc([N+](=O)[O-])ccc12", 10.2],
  ["Cc1c(O)ccc2c1CCCC2", 7.05],
  ["CCOC(=O)c1cc2nc3ccccn3c(=O)c2cc1N", -1.15]
]}
